- studySystem: UniProt P25025
- experimentSummary: CXCL1-stimulated Ca2+ flux in whole human neutrophils
- Assay type: cell-based
- setupConditions: hPMNs; SAR discussion
assayEndpoint: activity against CXCL1-stimulated Ca2+ flux, in words

molecule	observedValue
O=C(Nc1ccc(F)cc1)c1ccc(SC2CCOC2=O)nc1 (centres unmarked) [Compound 9]	loss of activity
O=C(O)c1ccc(NC(=O)c2ccc(SCc3ccccc3B(O)O)nc2)cc1 [Compound 55]	abrogated all activity
O=C(Nc1ccc(F)cc1)c1ccc(SCS(=O)(=O)c2ccccc2)nc1 [Compound 10]	loss of activity
O=C(Nc1ccc(F)cc1)c1ccc(SC[N+](=O)[O-])nc1 [Compound 11]	loss of activity
COC(=O)c1ccc(CSc2ccc(C(=O)Nc3ccc(F)cc3)cn2)cc1 [Compound 46]	inactive
O=C(Nc1ccc(F)cc1)c1ccc(Sc2ccccc2)nc1 [Compound 45]	loss of activity
O=C(Nc1ccc(-c2nn[nH]n2)cc1)c1ccc(SCc2ccccc2B(O)O)nc1 [Compound 56]	abrogated all activity
COC(=O)c1cccc(CSc2ccc(C(=O)Nc3ccc(F)cc3)cn2)c1 [Compound 48]	inactive

// moving on: another record for activity against CXCL1-stimulated Ca2+ flux, in words
Field request: activity against CXCL1-stimulated Ca2+ flux, in words | item: CCOP(=O)(CSc1ccc(C(=O)Nc2ccc(F)cc2)cn1)OCC [Compound 12]
loss of activity

----------
- studySystem: CXCR2 (Homo sapiens)
- Sequence (P25025 whole entry): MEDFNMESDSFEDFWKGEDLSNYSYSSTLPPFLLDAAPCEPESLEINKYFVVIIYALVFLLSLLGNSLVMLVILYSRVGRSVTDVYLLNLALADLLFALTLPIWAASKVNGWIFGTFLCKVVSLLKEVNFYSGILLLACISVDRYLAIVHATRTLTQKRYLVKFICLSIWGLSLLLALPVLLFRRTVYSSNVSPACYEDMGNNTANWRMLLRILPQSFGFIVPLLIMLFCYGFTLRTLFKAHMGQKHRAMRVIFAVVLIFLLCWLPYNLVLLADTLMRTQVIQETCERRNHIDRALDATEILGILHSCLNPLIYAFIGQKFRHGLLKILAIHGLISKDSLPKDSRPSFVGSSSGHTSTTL
- experimentSummary: CXCL1-stimulated Ca2+ flux in whole human neutrophils
- Format: cell-based
- setupConditions: CXCL1-stimulated Ca2+ flux, hPMNs
assayEndpoint: fold reduction in activity relative to 7 (fold)

1 = O=C(Nc1ccc(F)cn1)c1ccc(SCc2ccccc2B(O)O)nc1
2 = O=C(Nc1ccncc1)c1ccc(SCc2ccccc2B(O)O)nc1
3 = O=C(Nc1ccc(O)cc1)c1ccc(SCc2ccccc2B(O)O)nc1
rank_up(items): orders items by reported fold reduction in activity relative to 7 in ascending numerical order. Give the labels in the order requested.
3, 1, 2

----------
- Test system: PAF-induced Ca2+ flux
- experimentSummary: PAF-induced Ca2+ flux in hPMNs
- Type: cell-based, human
- setupConditions: Homo sapiens, read-out: IC50, PAF-induced Ca2+ flux
pIC50: −log10 of the molar value.
assayEndpoint: pIC50

Lookup: pIC50 / PAF-induced Ca2+ flux / `O=C(Nc1ccc(F)cc1)c1ccc(SCc2ccccc2B(O)O)nc1`
< 5.30
